- measurement_target: human melanocortin-4 receptor (human, UniProt P32245 1-332)
- Sequence (P32245 whole entry): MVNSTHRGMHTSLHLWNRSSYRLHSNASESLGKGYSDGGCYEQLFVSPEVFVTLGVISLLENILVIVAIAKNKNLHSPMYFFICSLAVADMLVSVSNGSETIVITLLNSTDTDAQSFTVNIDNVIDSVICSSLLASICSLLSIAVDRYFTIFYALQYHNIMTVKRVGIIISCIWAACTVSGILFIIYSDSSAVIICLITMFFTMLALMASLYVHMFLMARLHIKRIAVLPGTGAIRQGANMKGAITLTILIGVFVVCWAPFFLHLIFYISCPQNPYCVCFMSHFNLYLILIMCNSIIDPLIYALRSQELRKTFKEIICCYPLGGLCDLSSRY
- method_notes: cell-based or functional assay
Positions of bridges follow the written chain, without caps; N, C: chain ends. Non-standard residues stand in square brackets, D forms with d. dPhe(2-CF3) = N[C@H](Cc1ccccc1C(F)(F)F)C(=O)O; dPhe(2-Cl) = N[C@H](Cc1ccccc1Cl)C(=O)O; Orn = NCCC[C@H](N)C(=O)O
Reported EC50, cAMP, 0.1 ng/mL Doxycycline values for a set of binders

Here is how some binders turned out for EC50, cAMP, 0.1 ng/mL Doxycycline.
{"binder": "Ac-R[Orn]N[dPhe(2-CF3)]RWE-NH2 (lactam 2-7) [Ac-Arg-cyclo(Orn-Asn-D-Phe(2-CF3)-Arg-Trp-Glu)-NH2]", "EC50, cAMP, 0.1 ng/mL Doxycycline": "1 nM"}
{"binder": "RDPXRWK (N-terminal Ac; D-Phe(4-F) 4; lactam Asp 2-Lys 7; C-terminal NH2, also called No. 103) [Ac-Arg-cyclo(Asp-Pro-D-Phe(4-F)-Arg-Trp-Lys)-NH2]", "EC50, cAMP, 0.1 ng/mL Doxycycline": "1 nM"}

With those in mind, consider the next binder.
Which EC50, cAMP, 0.1 ng/mL Doxycycline is reported for this binder? Ac-R[Orn]N[dPhe(2-Cl)]RWE-NH2 (lactam 2-7) [Ac-Arg-cyclo(Orn-Asn-D-Phe(2-Cl)-Arg-Trp-Glu)-NH2]
0.72 nM
